Data provenance: a melting point compilation (Tetko et al.; mined from patent text by program, amines drawn as free bases though some values may be those of a salt)

Item-by-item account of melting point

COMPOUND: CCOC(=O)C1CN(CC)c2nc(SC)ncc2C1=O (stereo unspecified)
melting point: 157 °C
//
COMPOUND: CCCCc1nc(CC(=O)O)c(-c2ccco2)o1
melting point: 62 to 63 °C
//
COMPOUND: COC(=O)C1Cc2c(n(C)c3ccccc23)CN1C(=S)SC (stereo unspecified)
melting point: 170 to 171 °C
//
COMPOUND: CCOC(=O)c1ccc2c(c1)C(=O)CC(c1ccccc1)=N2
melting point: > 300 °C
//
COMPOUND: O=C1c2ccccc2C(=O)c2oc(-c3ccc(F)cc3)nc21
melting point: > 260 °C

// next item, melting point requested
// query Can you look up the measured melting point of Cc1cc(-n2c(C)ccc2-c2ccc(S(C)(=O)=O)cc2)ccc1-c1ccco1 for me?
// result 160 to 162 °C

----------
Item-by-item account of melting point
Write down the numeric answer in °C and omit the unit.

ITEM_SMILES: Cc1cc(C)n2nc(SCc3ccccc3)c(C#N)c2n1
MEASURED_PROPERTY: melting point
OBSERVED_RESULT: 140

// next item, melting point requested
// query Can you look up the measured melting point of CC1(C)Cc2cc(O)c(Cl)c(Cl)c2C1=O for me?
// result 273

----------
MEASURED_PROPERTY: melting point

COMPOUND: COC(=O)[C@@](N)(CCSC)C(=O)c1ccc(NC[C@@H]2C[C@@H](O)CN2C(=O)OC(C)(C)C)cc1-c1ccccc1
OBSERVED_RESULT: 81 °C

// query Can you look up the measured melting point of CCCc1c[nH]nc1OCc1ccc2ccccc2n1 for me?
// result 94 to 95 °C

// query Here is the next compound: O=C(NCCCCCCCCn1ccnc1)c1ccc(Cl)nc1
// result 79 to 81 °C

----------
Item-by-item account of melting point

COMPOUND: N#CC(C(=O)Nc1ccccc1)C(=O)c1nn(-c2ccccc2)c2c1COc1c(CN3CCOCC3)cc(F)cc1-2 (stereo not given)
MEASURED_PROPERTY: melting point
OBSERVED_RESULT: 249 to 253 °C

COMPOUND: O=C(O)C1CCc2ccccc2N1C(=O)CSSCC(=O)N1c2ccccc2CCC1C(=O)O (stereo not given)
MEASURED_PROPERTY: melting point
OBSERVED_RESULT: 172 to 174 °C

// query Can you look up the measured melting point of O=C(CCl)Nc1ccc(C(=O)N2CCc3cc(S(=O)(=O)n4cc(-c5ccccc5)[nH]c4=O)ccc32)cc1 for me?
// result 188 to 189 °C

// query Here is the next compound: CCOC(=O)C1=C(C)NC(C(F)F)=C(C(=O)OCC)C1c1cccc([N+](=O)[O-])c1 (stereo not given)
// result 148 to 149 °C

// query Here is the next compound: CCN(CC)c1nc(C)[nH]c2c(-c3ccc(Cl)cc3Cl)nc(C)c1-2
// result 146 to 148 °C

// query Here is the next compound: COc1cc(COc2nn(-c3ccccc3)cc2/C=C/c2cncn2C)ccc1OCc1nc(-c2ccco2)oc1C
// result 144 to 145 °C

// query Here is the next compound: CC(C)(C)c1csc(-c2cc3cc(Cn4c(C(N)=O)cc5ccccc54)ccc3o2)n1
// result 151 to 152 °C

// query Here is the next compound: CN(c1cccc2cc(C3=NCC(C)(CN4CCN(S(C)(=O)=O)CC4)S3)[nH]c12)S(=O)(=O)c1cccs1 (stereo not given)
// result 209 to 210 °C

// query Here is the next compound: CC(C)c1cc(N(C)C)cc2c1C(=O)N(COC(=O)c1c(Cl)cccc1Cl)S2(=O)=O
// result 177 to 179 °C

// query Here is the next compound: Cn1ncnc1COc1nc2c(cc1C(C)(C)C)nnn2-c1c(F)cccc1F
// result 105 to 108 °C
